# ASSAY_COMMENT: Cytotoxicity against human Hep2 cells assessed as cell survival fraction at 0.05 ug/ml after 24 hrs by trypan blue exclusion assay (reference value: 97 to 98%)
# Format: cell-based
# ASSAY_CONTEXT: HEp-2 cells, read-out: Survival
Note to self: viability at 24 h, 0.05 ug/ml under 90% means class 1, ties and anything higher get class 0.

Threshold test, viability at 24 h, 0.05 ug/ml < 90%: Clc1ccc(-c2csc(NN=C3CCCCCCC3)n2)c(Cl)c1 class 0

Threshold test, viability at 24 h, 0.05 ug/ml < 90%: CCC/C(C)=N/Nc1nc(-c2ccc(C)cc2)cs1 class 0

Threshold test, viability at 24 h, 0.05 ug/ml < 90%: Clc1ccccc1C(c1ccccc1)(c1ccccc1)n1ccnc1 class 0

Threshold test, viability at 24 h, 0.05 ug/ml < 90%: CC/C(C)=N/Nc1nc(-c2ccc(OC)cc2)cs1 class 1

Threshold test, viability at 24 h, 0.05 ug/ml < 90%: C/C(=N\Nc1nc(-c2ccc(Cl)cc2Cl)cs1)C1CCCCC1 class 0

Data origin, for the record: ChEMBL document CHEMBL2401735
